Can you tell me pIC50 for the items I'm about to list?
# assayed.target: recombinant human PAD4 (Homo sapiens (Human), UniProt Q9UM07)
# Sequence (Q9UM07 whole entry): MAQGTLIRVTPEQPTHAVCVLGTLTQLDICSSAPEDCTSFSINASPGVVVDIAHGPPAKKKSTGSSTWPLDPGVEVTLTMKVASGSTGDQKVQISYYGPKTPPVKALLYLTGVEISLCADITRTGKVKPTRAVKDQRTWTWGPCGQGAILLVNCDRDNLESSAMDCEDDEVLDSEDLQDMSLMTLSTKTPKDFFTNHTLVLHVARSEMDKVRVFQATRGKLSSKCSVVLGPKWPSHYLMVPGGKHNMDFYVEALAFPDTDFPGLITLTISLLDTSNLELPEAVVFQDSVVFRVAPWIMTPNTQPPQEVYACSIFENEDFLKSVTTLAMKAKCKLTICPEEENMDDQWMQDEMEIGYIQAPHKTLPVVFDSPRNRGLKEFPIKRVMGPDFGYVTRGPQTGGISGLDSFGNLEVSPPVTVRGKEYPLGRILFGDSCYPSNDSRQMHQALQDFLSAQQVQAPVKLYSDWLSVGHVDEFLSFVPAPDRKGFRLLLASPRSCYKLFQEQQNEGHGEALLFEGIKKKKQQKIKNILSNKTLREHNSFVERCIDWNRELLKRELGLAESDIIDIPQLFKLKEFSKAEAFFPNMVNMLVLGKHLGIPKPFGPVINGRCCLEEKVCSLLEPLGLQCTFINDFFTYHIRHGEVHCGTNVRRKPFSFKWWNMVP
# method.description: RFMS Human PAD4 Functional Assay 2
# test.context: RFMS assay 2; 35 nM recombinant human PAD4, 500 μM TSTGGRQGSHH peptide, 2 mM CaCl2, room temperature 30 minutes; read-out: hPAD4 RFMS IC50
# Method: RFMS Human PAD4 Functional Assay 2: Compound Preparation: • Stock compounds were dissolved and stored in 100% DMSO. Compound solutions were prepared via serial dilution at 3-fold intervals in DMSO with top compound concentration at 20 μM in each assay. 0.25 μl of compound solution was transferred from the compound plate to the assay plate by using an acoustic dispenser. […] MRM transitions for substrate and product were monitored in positive ESI mode at m/z=562.3/969.7 and m/z=562.8/541.3 respectively. […]
Scale explanation: pIC50 corresponds to minus log10 of a concentration expressed in moles per litre.

Value of measured pIC50 for the entry Cc1c(-c2cc3ccccc3n2CC2CC2)sc2cc(C(=O)N3CCC[C@@H](N)C3)cc(CO)c12 : 6.06

response.value for COc1cc(C(=O)N2CCC[C@@H](N)C2)cc2sc(-c3cc4ccccc4n3CC3CC3)c(CCN)c12 (field: pIC50) = 5.69

The compound COc1ccc2cc(-c3oc4cc(C(=O)N5C[C@H](N)C[C@@H](F)C5)cc(OC)c4c3CCO)n(CC3CC3)c2c1 showed pIC50 equal to 6.49

Item: COc1cc(C(=O)N2C[C@H](N)C[C@@H](F)C2)cc2oc(-c3cc4cccc(OCCO)c4n3CC3CC3)c(CCO)c12 | pIC50: 6.68

pIC50 measured on COc1cc(C(=O)N2C[C@H](N)C[C@@H](F)C2)cc2oc(-c3cc4cccc(OCCn5cncn5)c4n3CC3CC3)c(CCO)c12 = 6.67

Note to self: pIC50 recorded for COc1cc(C(=O)N2C[C@H](N)C[C@@H](F)C2)cc2oc(-c3cc4cccc(OCC5CNC(=O)C5)c4n3CC3CC3)c(CCO)c12 (stereo partly shown) was 6.75

Measured pIC50 of COc1cc(C(=O)N2C[C@H](N)C[C@@H](F)C2)cc2oc(-c3cc4cccc(OCC5CNC5)c4n3CC3CC3)c(CCO)c12 : 6.56

---

# assayed.target: human PAD4 (hPAD4) (Homo sapiens (Human), UniProt Q9UM07)
# Sequence (Q9UM07 whole entry): as above
# method.description: RFMS Human PAD4 Functional Assay 1
# test.context: RFMS assay 1; 5 nM hPAD4, 250 μM BAEE substrate, 50 μM calcium, 37° C.
measured.property: IC50 (nM)
Numeric answer only, unit nM assumed.

# IC50 (molecule: Cc1ccc2cc(-c3nn4cc(C(=O)N5CC6CCC5[C@@H]6N)ccc4c3C)n(CC3CC3)c2n1 (stereo partly drawn) ) is 59

Lab note: measured IC50 of Cc1c(-c2cc3cccc(C4CCN(C(=O)C5CC(O)(C(F)(F)F)C5)CC4)c3n2CC2CC2)nn2cc(C(=O)N3CCC[C@@H](N)C3)ccc12 (mixture of isomers) was 30

Value of measured IC50 for the entry COc1cc(C(=O)N2CC3CCC2[C@@H]3N)cc2sc(-c3cc4ccc(-c5ccn6c(C)nnc6c5)cc4n3CC3CC3)c(C)c12 (stereo partly drawn) : 68
